assay: qHTS of pediatric cancer cell lines to identify multiple opportunities for drug repurposing: Primary screen for MG 63 (6-TG R) cells (AID 1347105); conditions: MG 63 (6-TG R) viability, CellTiter-Glo, 48 h; series mostly up to 46 µM; also: nearly all actives have a fitted effect of over 50% in size; also: potency is read from the fitted curve at half-maximal effect
Results filed as inconclusive are left out. Activity calls are given as the source filed them. Calls follow the shape of the dose curve; as a rule, active = well fitted cell-killing curve with a large enough effect; inconclusive = small, poorly fitted or top-dose-only effect; inactive = no such curve, though single readings can be large or run the other way.
MEASURE: Potency

Here is how some molecules turned out for Potency.
>>> result("CS[C@H]1SC[C@@H]2C(=O)N(C)[C@H](C(C)C)C(=O)OC[C@H](NC(=O)c3cnc4ccccc4n3)C(=O)N[C@H](C)C(=O)N(C)[C@@H]1C(=O)N(C)[C@H](C(C)C)C(=O)OC[C@H](NC(=O)c1cnc3ccccc3n1)C(=O)N[C@H](C)C(=O)N2C")
"18.7 nM (active)"
>>> result("O=C(CN1C(=O)C2(CCCC2)NC[C@H]1c1cc(F)cc(F)c1)Nc1ccc2c(c1)C[C@@]1(C2)C(=O)Nc2ncccc21")
"inactive"
>>> result("CC(=O)O[C@H]1C[C@@H]2CC[C@H]3[C@H]4C[C@H]([N+]5(C)CCCCC5)[C@@H](OC(C)=O)[C@@]4(C)CC[C@@H]3[C@@]2(C)C[C@H]1N1CCCCC1")
"inactive"
>>> result("CCN(C(=O)c1c(O)c2c(Cl)cccc2n(C)c1=O)c1ccccc1")
"inactive"
>>> result("COc1cccc2c1C(=O)c1c(O)c3c(c(O)c1C2=O)C[C@@](O)(C(=O)CO)C[C@@H]3O[C@H]1C[C@H](N)[C@@H](O)[C@H](C)O1")
"1480 nM (active)"
>>> result("N#CC(=C(O)c1ccc(Cl)cc1Cl)c1nc2cc(Cl)ccc2c(=O)[nH]1")
"inactive"
>>> result("COc1cc2c(Nc3ccc(Cl)c(Cl)c3F)ncnc2cc1OCC1C[C@@H]2CN(C)C[C@H]2C1")
"14800 nM (active)"

Next molecule, Potency to be filled in.
Exercise: Given the entry `C[N+]1(C)[C@@H]2C[C@@H](OC(=O)C(O)(c3cccs3)c3cccs3)C[C@H]1[C@@H]1O[C@@H]12` , report its measured Potency.
Solution: inactive

* * *

assay: qHTS of pediatric cancer cell lines to identify multiple opportunities for drug repurposing: Primary screen for TC32 cells (AID 1347089); details: TC32 Ewing sarcoma viability, CellTiter-Glo luminescence, 48 h; series mostly up to 45.8 µM; also: nearly all actives have a fitted effect of over 60% in size
Records with an inconclusive call do not appear. Activity calls are given as the source filed them. The call rests on the fitted dose curve; in most records, active means well fitted cell-killing curve with a large enough effect; inconclusive means small, poorly fitted or top-dose-only effect; inactive means flat fitted curve, though single readings scatter.
Outcomes you can answer with include only these: 1 (yes) = active, 0 (no) = inactive

Worked examples follow.
>>> classification("Cn1cc(-c2ccc3ncc(Cc4ccc5ncccc5c4)n3n2)cn1")
"0 (no)"
>>> classification("N[C@H]1CN(c2c(F)cc3c(=O)c(C(=O)O)cn(C4C[C@@H]4F)c3c2Cl)CC12CC2 (stereo partly drawn)")
"0 (no)"
>>> classification("COC1=C(OC)C(=O)C(CC=C(C)CCC=C(C)CCC=C(C)CCC=C(C)CCC=C(C)CCC=C(C)CCC=C(C)CCC=C(C)CCC=C(C)CCC=C(C)C)=C(C)C1=O")
"0 (no)"
>>> classification("CN(C)c1ccc(C(=O)NCCCCCCC(=O)NO)cc1")
"1 (yes)"

Exercise: Identify the outcome logged in this assay for the molecule shown: C[C@@H]1CC[C@@]2(OC1)OC1CC3C4CC=C5CC(O)CCC5(C)C4CCC3(C)C1[C@@H]2C (stereo partly drawn)
Solution: 0 (no)

Exercise: Similarly, `C=CCNc1c(O)cc2c(O)c1C[C@@H](C)C[C@H](OC)[C@@H](O)[C@@H](C)C=C(C)[C@H](OC(N)=O)[C@@H](OC)C=CC=C(C)C(=O)N2` ?
Solution: 1 (yes)

Exercise: Similarly, `O=C(C=CC#Cc1cccc(NS(=O)(=O)c2ccccc2)c1)NO` ?
Solution: 1 (yes)

Exercise: Similarly, `C=CC1=C(C(=O)O)N2C(=O)[C@@H](NC(=O)C(=NO)c3csc(N)n3)[C@H]2SC1` ?
Solution: 0 (no)

Exercise: Similarly, C=C1CCC2[C@](C)(CO)C(O)CC[C@]2(C)C1CC=C1C(=O)OCC1O (stereo partly drawn) ?
Solution: 0 (no)

Exercise: Similarly, Cc1ccc(O)c(C(CCN(C(C)C)C(C)C)c2ccccc2)c1 (stereo not drawn) ?
Solution: 0 (no)

Exercise: Similarly, `OCCN1C[C@H](O)[C@@H](O)[C@H](O)[C@@H]1CO` ?
Solution: 0 (no)

Exercise: Similarly, `O=C(C=Cc1ccc(CN(CCO)CCc2c[nH]c3ccccc23)cc1)NO` ?
Solution: 1 (yes)
